# Measured On: Peroxisome proliferator-activated receptor gamma (Homo sapiens, UniProt P37231)
# Test Protocol: Agonistic activity was determined in COS1 cells transfected with GAL 4-PPAR gamma receptor
Parameter pEC50: see the listing below.
The meaning of pEC50 here: minus log10 of the concentration in molar units.

Request: Consider the compound CCCc1c(OCCCCOc2ccc(/C=C/C(=O)O)cc2)ccc2c(-c3ccccc3)noc12 . State its measured pEC50.
Response: 7.54

Request: Consider the compound CCCc1c(OCCCOc2ccc(/C=C/C(=O)O)cc2)ccc2c(-c3ccccc3)noc12 . State its measured pEC50.
Response: 6.60

***
Request: Consider the compound CCCc1c(OCCCCOc2ccc(C(C)(C)CC(=O)O)cc2)ccc2c(-c3ccccc3)noc12 . State its measured pEC50.
Response: 7.43

----------
# Measured On: Peroxisome proliferator-activated receptor gamma (Homo sapiens, UniProt P37231)
# Sequence (P37231 whole entry): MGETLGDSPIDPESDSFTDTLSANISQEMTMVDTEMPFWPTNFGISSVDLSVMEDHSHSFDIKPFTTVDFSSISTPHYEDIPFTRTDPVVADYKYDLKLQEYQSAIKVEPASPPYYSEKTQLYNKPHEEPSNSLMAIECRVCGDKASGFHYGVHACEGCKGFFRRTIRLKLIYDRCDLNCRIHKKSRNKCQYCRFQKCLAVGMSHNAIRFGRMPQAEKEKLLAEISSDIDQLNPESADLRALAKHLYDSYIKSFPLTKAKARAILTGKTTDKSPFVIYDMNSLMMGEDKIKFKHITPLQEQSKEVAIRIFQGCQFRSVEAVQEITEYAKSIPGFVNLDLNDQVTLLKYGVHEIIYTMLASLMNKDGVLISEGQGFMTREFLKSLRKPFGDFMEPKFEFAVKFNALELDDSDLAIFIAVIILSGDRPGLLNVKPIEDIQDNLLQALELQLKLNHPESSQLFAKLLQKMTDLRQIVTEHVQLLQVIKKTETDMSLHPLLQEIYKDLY
# Test Protocol: In vitro binding affinity towards human peroxisome proliferator activated receptor gamma (PPAR gamma)
pKi: −log10 of the molar value.
Rule: pKi under 7 gives N, otherwise Y.

Solved cases (5 shown):
Request: Check if pKi >= 7 (inclusive). Item: CCCc1c(OCCCCOc2cccc(OC(C)(C)C(=O)O)c2)ccc2c(-c3ccccc3)noc12
Response: Y

Request: Check if pKi >= 7 (inclusive). Item: CCCc1c(OCCCOc2ccc(CCC(=O)O)cc2)ccc2c(-c3ccccc3)noc12
Response: Y

Request: Check if pKi >= 7 (inclusive). Item: CCCc1c(OCCCCOc2ccccc2CC(=O)O)ccc2c(-c3ccccc3)noc12
Response: N

Request: Check if pKi >= 7 (inclusive). Item: CCCc1c(OCCCOc2ccc(OC(C)C(=O)O)cc2)ccc2c(-c3ccccc3)noc12 (configuration not stated)
Response: Y

Request: Check if pKi >= 7 (inclusive). Item: CCCc1c(OCCCOc2ccccc2CCC(=O)O)ccc2c(-c3ccccc3)noc12
Response: N

***
Request: Check if pKi >= 7 (inclusive). Item: CCCc1c(OCCCCOc2ccc(OC(C)(C)C(=O)O)cc2)ccc2c(-c3ccccc3)noc12
Response: Y

Request: Check if pKi >= 7 (inclusive). Item: CCCc1c(OCCCCOc2ccc(C(=O)O)cc2)ccc2c(-c3ccccc3)noc12
Response: N

Request: Check if pKi >= 7 (inclusive). Item: CCCc1c(OCCCCOc2cccc(OCC(=O)O)c2)ccc2c(-c3ccccc3)noc12
Response: Y

Request: Check if pKi >= 7 (inclusive). Item: CCCc1c(OCCOc2ccc(CCCC(=O)O)cc2)ccc2c(-c3ccccc3)noc12
Response: N

Request: Check if pKi >= 7 (inclusive). Item: CCCc1c(OCCCOc2ccccc2CC(=O)O)ccc2c(-c3ccccc3)noc12
Response: N
